target: full-length beta-Catenin (Uniprot ID P35222) (Homo sapiens (Human)) (UniProt P35222); test: cell-based or functional assay
Starred links: 1 amine or outer side, 2 acyl side, 3 side chain; linkers in the order of their positions; H or OH if unused. Positions of bridges follow the written chain, without caps; N, C: chain ends. Non-standard residues stand in square brackets, D forms with d. Primed or numbered codes have the meaning given here. PyrS2″ = (S)-3-amino-1-((pent-4-en-1-yloxy)carbonyl)pyrrolidine-3-carboxylic acid (stapling residue), C=CCCCOC(=O)N1CC[C@@](N[*:1])(C(=O)[*:2])C1; B5(5) = 2,2-bis(4-pentenyl)glycine, 2-amino-2-(pent-4-en-1-yl)hept-6-enoic acid (stitching residue), C=CCCCC(CCCC=C)(N[*:1])C(=O)[*:2]; PyrS2 = (S)-3-amino-1-((pent-4-en-1-yloxy)carbonyl)pyrrolidine-3-carboxylic acid, C=CCCCOC(=O)N1CC[C@@](N[*:1])(C(=O)[*:2])C1; B5 = 2-amino-2-(pent-4-en-1-yl)hept-6-enoic acid, C=CCCCC(CCCC=C)(N[*:1])C(=O)[*:2]; Phe(3-COOH) = N[C@@H](Cc1cccc(C(=O)O)c1)C(=O)O; Phe(2-CF3) = N[C@@H](Cc1ccccc1C(F)(F)F)C(=O)O; Bta = N[C@@H](Cc1csc2ccccc12)C(=O)O; αAllylPro = C=CC[C@@]1(C(=O)O)CCCN1; tBuAla = CC(C)(C)C[C@H](N)C(=O)O; 3Thi = N[C@@H](Cc1ccsc1)C(=O)O; Aib = CC(C)(N)C(=O)O
Task for the reader: assign each of the following binders its reported DLD1 4% Abs IC50.
One number for each entry, in nM.

Ac-[αAllylPro]D[tBuAla][B5(5)]D[Phe(3-COOH)]AAFL[PyrS2″][Phe(2-CF3)][Bta]QLF-NH2 (staple 1-4, 4-11) [I-2381] : 1100
Ac-[αAllylPro]D[tBuAla][B5(5)]D[Phe(3-COOH)]AAFL[PyrS2][Phe(2-CF3)][Bta]QLR-NH2 (staple 1-4, 4-11) [I-2393] : 5600
Ac-[αAllylPro]D[tBuAla][B5(5)]D[Phe(3-COOH)]AAFL[PyrS2″][Phe(2-CF3)][Bta]QL[Aib]-NH2 (staple 1-4, 4-11) [I-2386] : 700

Please find the next binder below.
Answer with reported DLD1 4% Abs IC50 of Ac-[αAllylPro]D[tBuAla][B5]D[Phe(3-COOH)][Aib]AFK(Ac)[PyrS2][3Thi][Bta]AA-NH2 (staple 1-4, 4-11; not fully specified; printed as Ac-PL3-Asp-Npg-B5-Asp-3COOHF-Aib-Ala-Phe-AcLys-PyrS2-3Thi-BztA-Ala-Ala-NH2) [I-2578]
4100
